Item-by-item account of IC50
- Test system: BVDV
- TEST DESCRIPTION: microbe, parasite or virus in culture
- Type: cell-based, bovine diarrheal virus (BVDV)
- MEASUREMENT CONDITIONS: Bovine viral diarrhea virus isolates and strains, MDBK, in Bos taurus, read-out: IC50
Reply with just the number (in µg/mL).

{"columns": ["MOLECULE", "IC50 / µg/mL"],
 "data": [
  ["COC(=O)C1(C)CCCC2(C)c3ccccc3C(=O)CC12 (stereo not shown)", 51],
  ["COC(=O)[C@@]1(C)CCC[C@]2(C)c3cc(OC)ccc3C(=O)C[C@@H]12", 13.5],
  ["COC(=O)[C@@]1(C)CCC[C@@]2(C)C1=CC(=NO)c1ccc(OC)cc12", 8.9]
]}

In: Endpoint output: IC50 of COC(=O)C1(C)CCCC2(C)c3ccc(O)cc3C(=O)CC12 (stereo not shown) . Value?
Out: 16

---

Measured IC50 accompanies every entry in the list below.
- Test system: influenza A/Kawasaki (A/KAW H1N1)
- TEST DESCRIPTION: Antiviral plaque assay, A/KAW H1N1
- MEASUREMENT CONDITIONS: MDCK cells
Record the value in µg/mL, omitting the unit from your answer.

The following compounds have reported results that may help.
{"columns": ["COMPOUND", "IC50 [µg/mL]"],
 "data": [
  ["O=C(NCC(c1ccccc1)c1ccncc1)Nc1ccccc1Cl (stereo not shown)", 0.024],
  ["O=C(O)CCC1(c2ccccc2)CCCCC1", 0.07]
]}

In: Missing value: IC50, influenza A/Kawasaki (A/KAW H1N1), entry NC12CC3CC(CC(C3)C1)C2 [Amantadine, amantadine, reference compound] . Fill in?
Out: 0.036

---

- TEST DESCRIPTION: in vitro
- MEASUREMENT CONDITIONS: bovine, mdbk cells
Listed next: entries and their corresponding CC50.
Report the value in µg/mL with no unit label.

In: What does the data say about its CC50? Entry: COC(=O)[C@@]1(C)CCC[C@@]2(C)C1=CC(=NO)c1ccc(OC)cc12
Out: 30.8

In: Name the reported CC50 value associated with the compound COC(=O)[C@@]1(C)CCC[C@]2(C)c3cc(OC)ccc3C(=O)C[C@@H]12
Out: 51.8

In: May I ask what CC50 has been recorded for COC(=O)C1(C)CCCC2(C)c3ccc(O)cc3C(=O)CC12 (stereo not shown) ?
Out: 32

---

- System: B/GL
- TEST DESCRIPTION: Antiviral plaque assay, B/GL
- Assay type: cell-based
- MEASUREMENT CONDITIONS: Influenza B virus, MDCK cells
// IC50 lookup, one value per entry
Express your answer in µg/mL, writing the number without its unit.

{"columns": ["COMPOUND", "TESTED SYSTEM", "RESULT UNIT", "OBSERVED MEASUREMENT"],
 "data": [
  ["O=C(NCC(c1ccccc1)c1ccncc1)Nc1ccccc1Cl (stereo not shown) [COMPOUND B]", "B/GL", "µg/mL", 2.83]
]}

In: If you can, please state the reported IC50 value of COC(=O)[C@@]1(C)CCC[C@]2(C)c3cc(OC)ccc3C(=O)C[C@@H]12 [COMPOUND A] .
Out: 5.65

---

# Lookup of reported IC50 keyed by entry
- Tested on: A/FM/1/47 H1N1
- TEST DESCRIPTION: Antiviral plaque assay, A/FM/1/47 H1N1
- MEASUREMENT CONDITIONS: MDCK cells
Write it as a number; the unit µg/mL goes unstated.

{"columns": ["MOLECULE", "IC50 / µg/mL"],
 "data": [
  ["O=C(O)CCC1(c2ccccc2)CCCCC1", 0.15],
  ["NC12CC3CC(CC(C3)C1)C2 [Amantadine, amantadine, reference compound]", 0.13]
]}

In: Quick check: IC50 of O=C(NCC(c1ccccc1)c1ccncc1)Nc1ccccc1Cl (stereo not shown) ?
Out: 0.18

---

- System: BVDV
- TEST DESCRIPTION: microbe, parasite or virus in culture
- Format: cell-based, bovine diarrheal virus (BVDV)
- MEASUREMENT CONDITIONS: Bovine viral diarrhea virus isolates and strains, MDBK, in Bos taurus, read-out: IC50 (virus replication inhibited by 50%)
READOUT NAME: IC50 (µg/mL)
Give your result in µg/mL as a bare value.

{"columns": ["COMPOUND", "READOUT NAME", "RESULT UNIT", "OBSERVED MEASUREMENT"],
 "data": [
  ["COC(=O)[C@@]1(C)CCC[C@]2(C)c3cc(OC)ccc3C(=O)C[C@@H]12", "IC50", "µg/mL", 3.56],
  ["COC(=O)C1(C)CCCC2(C)c3ccccc3C(=O)CC12 (stereo not shown)", "IC50", "µg/mL", 15],
  ["COC(=O)[C@@]1(C)CCC[C@@]2(C)C1=CC(=NO)c1ccc(OC)cc12", "IC50", "µg/mL", 5.25]
]}

Shifting focus to the compound that follows.
In: Would you kindly share the measured IC50 for COC(=O)C1(C)CCCC2(C)c3ccc(O)cc3C(=O)CC12 (stereo not shown) ?
Out: 4.94
